B1: CPOX (parent)
chain: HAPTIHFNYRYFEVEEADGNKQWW

Variants of: B1
protocol: protein stability index of a GFP-peptide fusion (GPS, HEK-293T) (PSI 1-6); higher = more stable;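 also: lentivirally expressed fusions sorted by FACS into six bins by GFP to DsRed ratio, PSI derived from sequencing read proportions per bin multiplied by bin number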
condition.context: c terminus: a fixed tail appended
reported.endpoint: protein stability index
The answer should be a number; do not append a unit.

Query: Sample P3Y — what was its protein stability index?
Reply: 2.39

Query: Sample Y11W — what was its protein stability index?
Reply: 2.79

Query: Sample P3F — what was its protein stability index?
Reply: 2.6

Query: Sample I5A — what was its protein stability index?
Reply: 2.69

Query: Sample H1Q — what was its protein stability index?
Reply: 2.96

Query: Sample Y11H — what was its protein stability index?
Reply: 3.13

Query: Sample E16K — what was its protein stability index?
Reply: 2.18

Query: Sample A2L — what was its protein stability index?
Reply: 2.11

Query: Sample H1P — what was its protein stability index?
Reply: 2.62

Query: Sample N8R — what was its protein stability index?
Reply: 2.83

Query: Sample Q22F — what was its protein stability index?
Reply: 1.67

Query: Sample H1S — what was its protein stability index?
Reply: 2.89

Query: Sample Y9K — what was its protein stability index?
Reply: 3.37

Query: Sample P3C — what was its protein stability index?
Reply: 1.62

Query: Sample K21Q — what was its protein stability index?
Reply: 2.67

Query: Sample P3W — what was its protein stability index?
Reply: 1.17

Query: Sample Q22S — what was its protein stability index?
Reply: 1.59

Query: Sample V14Q — what was its protein stability index?
Reply: 2.85

Query: Sample Q22V — what was its protein stability index?
Reply: 1.9

Query: Sample K21G — what was its protein stability index?
Reply: 2.44

Query: Sample E15Y — what was its protein stability index?
Reply: 1.9

Query: Sample A17I — what was its protein stability index?
Reply: 1.86

Query: Sample E16Q — what was its protein stability index?
Reply: 2.39

Query: Sample N8I — what was its protein stability index?
Reply: 1.26

Query: Sample P3G — what was its protein stability index?
Reply: 2.85

Query: Sample H1G — what was its protein stability index?
Reply: 3.62

Query: Sample W24S — what was its protein stability index?
Reply: 2.91

Query: Sample N20T — what was its protein stability index?
Reply: 2.85

Query: Sample A17D — what was its protein stability index?
Reply: 2.6

Query: Sample H1I — what was its protein stability index?
Reply: 2.05

Query: Sample W23E — what was its protein stability index?
Reply: 4.22

Query: Sample G19Y — what was its protein stability index?
Reply: 3.23

Query: Sample E16I — what was its protein stability index?
Reply: 2.29

Query: Sample W24E — what was its protein stability index?
Reply: 3.06

Query: Sample P3K — what was its protein stability index?
Reply: 1.93

Query: Sample V14G — what was its protein stability index?
Reply: 3.15

Query: Sample H1N — what was its protein stability index?
Reply: 2.54

Query: Sample A2W — what was its protein stability index?
Reply: 2.02

Query: Sample F12Q — what was its protein stability index?
Reply: 2.63

Query: Sample T4N — what was its protein stability index?
Reply: 2.63

Query: Sample F12I — what was its protein stability index?
Reply: 2.33

Query: Sample G19E — what was its protein stability index?
Reply: 2.48

Query: Sample E15L — what was its protein stability index?
Reply: 2.49

Query: Sample E15C — what was its protein stability index?
Reply: 2.15

Query: Sample Y11T — what was its protein stability index?
Reply: 3.23

Query: Sample F12E — what was its protein stability index?
Reply: 2.99
